Biological target: ATP-dependent DNA helicase Q1 (Homo sapiens)
Assay: Confirmation qHTS Assay for Inhibitors of RecQ-Like Dna Helicase 1 (RECQ1) - Round 2 Cherry Picks; note: nearly all actives have a fitted effect of over 50% in size
Conditions: recombinant RECQ1 DNA unwinding, red fluorescence; series mostly up to 119 µM
Among all 1,100 compounds or so, about 160 (15%) were called active. Not shown: some 36% with an inconclusive outcome. Calls come from the whole dose curve; as a rule, active = well fitted inhibition curve with a large enough effect; inconclusive = small, poorly fitted or top-dose-only effect; inactive = no such curve, though single readings can be large or run the other way. These entries were drawn from the full list.
Output constraint: value belongs to active, inactive

CC(Oc1cccc(NC(=O)c2cccs2)c1)C(=O)c1ccccc1 (centres undefined) :: inactive
COc1cccc(NC(=S)C(C#N)=C2N(C)c3ccccc3N2C)c1 :: inactive
CCC(c1nnnn1Cc1ccco1)N(Cc1cc2cc(OC)ccc2[nH]c1=O)C1CCCCC1 (centres undefined) :: inactive
CCC(C)Cn1c(O)cc2nn(-c3nc4ccccc4s3)c(=O)c-2c1C (centres undefined) :: inactive
O=C(CSc1ccc(-c2ccco2)nn1)NCc1ccc2c(c1)OCO2 :: inactive

Ask: Would you mind telling me which call this test gave O=C1c2ccccc2C(=O)N1Cc1cc(-c2ccccc2Cl)no1 ?
Reply: inactive

Ask: Would you mind telling me which call this test gave COc1ccc(OCC(=O)Nc2nnc(-c3ccco3)s2)cc1 ?
Reply: inactive

Ask: Would you mind telling me which call this test gave Cc1ccnc2nc(C(=O)Nc3nnc(-c4ccccc4)o3)nn12 ?
Reply: inactive

Ask: Would you mind telling me which call this test gave CCc1ccc2nc3sc(C(=O)Nc4nnc(CC)s4)c(N)c3cc2c1 ?
Reply: active

Where do these numbers come from? They come from PubChem BioAssay AID504841.
